system: PBMC; test: Antiinflammatory activity in human PBMC assessed as inhibition of MIF-induced IL-6 production at 100 uM after 21 hrs by ELISA; type: functional
What inhibition at 100 µM was measured for each of the following?
Give bare numbers, in %.

Example entries begin here.
compound | measure | scale unit | number
FC(F)(F)c1ccc(C2CC(c3ccoc3)=NO2)cc1 (stereo unspecified) | inhibition at 100 µM | % | 50
Fc1ccc(C2CC(c3ccoc3)=NO2)cc1 (stereo unspecified) | inhibition at 100 µM | % | 15
FC(F)(F)c1ccc(C2CC(c3cn(-c4cccc(C(F)(F)F)c4)c4ccccc34)=NO2)cc1 (stereo unspecified) | inhibition at 100 µM | % | 6

Give inhibition at 100 µM for each listed item.
1. OCCC1CC(c2ccoc2)=NO1 (stereo unspecified)
2. FC(F)(F)c1cccc(-n2cc(C3=NOC(c4ccccc4)C3)c3ccccc32)c1 (stereo unspecified)
3. c1ccc(C2CC(c3ccoc3)=NO2)cc1 (stereo unspecified)

[7, 9, 14]
